FYI, the data here is from patent US4581359A.

measurement-notes: in vivo
experimental-context: rabbit, iv, 40 mg/kg, average half-life of theophylline

- chemical-structure: "Cn1c(=O)c2[nH]cnc2n(C)c1=O"
  half-life: "6 to 6.5 h"

---

measurement-notes: Concomitant dyphylline and aminophylline in two horses: plasma concentration, blood pressure, pulse (Example 3)
experimental-context: horse, in vivo, iv, 10 mg/kg, peak plasma concentration of theophylline, first horse, aminophylline 10 mg/kg over 17 minutes, dyphylline 20 mg/kg bolus at 40 minutes

- compound: "Cn1c(=O)c2[nH]cnc2n(C)c1=O [theophylline]"
  Cmax / ng/mL: 18000

---

measurement-notes: Literature: pharmacokinetics of dyphylline and related derivatives in humans
experimental-context: human, in vivo, po, analysis of Gisclon oral data, bioavailability 84 percent; read-out: total volume of distribution
measurement-kind: Vd/F

- molecule: "Cn1c(=O)c2c(ncn2CC(O)CO)n(C)c1=O (stereo not shown) [dyphylline, dihydroxypropyl theophylline]"
  measurement-kind: "Vd/F"
  reported-measurement: "~56 L"

---

measurement-notes: Literature: pharmacokinetics of dyphylline and related derivatives in humans
experimental-context: human, in vivo, 10 mg/kg, 10 mg/kg alcoholic solution; from Simons et al.; read-out: Total Vd

- molecule: "Cn1c(=O)c2c(ncn2CC(O)CO)n(C)c1=O (stereo not shown) [dyphylline, dihydroxypropyl theophylline]"
  Vd / L/kg: 0.98

---

measurement-notes: Dyphylline 20 min intravenous infusion in two healthy male subjects: pharmacokinetics, blood pressure, pulse (Example 2)
Format: in vivo, human
experimental-context: human, in vivo, iv, 1000 mg, Subject 1; 1000 mg over 20 min; read-out: β (converted)

- compound: "Cn1c(=O)c2c(ncn2CC(O)CO)n(C)c1=O (stereo not shown) [dyphylline, dihydroxypropyl theophylline]"
  k el / s⁻¹: "9.17e-05"

---

measurement-notes: Dyphylline intravenous infusion in rabbits: blood concentration, pharmacokinetics, toxicity (Example 1)
Format: in vivo, female New Zealand White rabbits
experimental-context: rabbit, blood, iv, 250 mg, 250.0 mg/rabbit over 15 minutes, alone; rabbits 1-3, mean

- molecule: "Cn1c(=O)c2c(ncn2CC(O)CO)n(C)c1=O (stereo not shown) [dyphylline, dihydroxypropyl theophylline]"
  k el / s⁻¹: 0.000325

---

measurement-notes: in vivo
experimental-context: rabbit, iv, 40 mg/kg, Vd(B)
measurement-kind: Vd (L/kg)

- compound: "Cn1c(=O)c2[nH]cnc2n(C)c1=O [theophylline]"
  reported-measurement: 0.403

---

measurement-notes: in vivo
experimental-context: rabbit, iv, 40 mg/kg

- compound: "Cn1c(=O)c2[nH]cnc2n(C)c1=O [theophylline]"
  concentration at 0.25 h: "~150 µg/mL"

---

measurement-notes: Dyphylline 20 min intravenous infusion in two healthy male subjects: pharmacokinetics, blood pressure, pulse (Example 2)
Format: in vivo, human
experimental-context: human, in vivo, iv, 1000 mg, Subject 2; 1000 mg over 20 min; read-out: β (converted)

- compound: "Cn1c(=O)c2c(ncn2CC(O)CO)n(C)c1=O (stereo not shown) [dyphylline, dihydroxypropyl theophylline]"
  k el: "0.000117 s⁻¹"

---

measurement-notes: Dyphylline 20 min intravenous infusion in two healthy male subjects: pharmacokinetics, blood pressure, pulse (Example 2)
Type: in vivo, human
experimental-context: human, in vivo, iv, 1000 mg, Subject 1; 0.693/β
measurement-kind: half-life (h)

- compound: "Cn1c(=O)c2c(ncn2CC(O)CO)n(C)c1=O (stereo not shown) [dyphylline, dihydroxypropyl theophylline]"
  reported-measurement: 2.11

---

measurement-notes: Dyphylline intravenous infusion in rabbits: blood concentration, pharmacokinetics, toxicity (Example 1)
Format: in vivo, female New Zealand White rabbits
experimental-context: rabbit, blood, iv, 250 mg, Table I; read-out: average apparent volume of distribution of dyphylline administered alone
Excerpt: A high-pressure liquid chromatographic (HPLC) system consisted of a delivery pump (M-6000A, Waters Associates, Milford, Mass.), sample injection apparatus (Model U6K, Waters Associates, Milford, Mass.), 30-cm reverse phase column (μBondapak C18, Waters Associates, Milford, Mass.), UV detector (Model 440, Waters Associates, Milford, Mass.) with wavelength of 280 nm and a dual pen recorder (Soltec Co., Encino, Calif.) which were used at ambient temperature. […]

- molecule: "Cn1c(=O)c2c(ncn2CC(O)CO)n(C)c1=O (stereo not shown) [dyphylline, dihydroxypropyl theophylline]"
  Vd (L/kg): 0.82

---

measurement-notes: Dyphylline 20 min intravenous infusion in two healthy male subjects: pharmacokinetics, blood pressure, pulse (Example 2)
Type: in vivo, human
experimental-context: human, in vivo, iv, 1000 mg, Subject 2; read-out: V3 (footnote: Vd, total volume of distribution)

- molecule: "Cn1c(=O)c2c(ncn2CC(O)CO)n(C)c1=O (stereo not shown) [dyphylline, dihydroxypropyl theophylline]"
  Vd, L: 50.6

---

measurement-notes: Dyphylline 20 min intravenous infusion in two healthy male subjects: pharmacokinetics, blood pressure, pulse (Example 2)
Assay type: in vivo, human
experimental-context: human, in vivo, iv, 1000 mg, two subjects; read-out: volume of the central compartment

- compound: "Cn1c(=O)c2c(ncn2CC(O)CO)n(C)c1=O (stereo not shown) [dyphylline, dihydroxypropyl theophylline]"
  Vd: "25 to 34 L"

---

measurement-notes: Dyphylline 20 min intravenous infusion in two healthy male subjects: pharmacokinetics, blood pressure, pulse (Example 2)
Assay type: in vivo, human
experimental-context: human, in vivo, iv, 1000 mg, two subjects, range; read-out: volume of the central compartment per kg
measurement-kind: Vd

- molecule: "Cn1c(=O)c2c(ncn2CC(O)CO)n(C)c1=O (stereo not shown) [dyphylline, dihydroxypropyl theophylline]"
  reported-measurement: "0.35 to 0.47 L/kg"

---

measurement-notes: Concomitant dyphylline and aminophylline in two horses: plasma concentration, blood pressure, pulse (Example 3)
experimental-context: horse, in vivo, iv, 10 mg/kg, peak plasma concentration of theophylline, second horse, dyphylline 20 mg/kg bolus then aminophylline 10 mg/kg over 20 minutes

- chemical-structure: "Cn1c(=O)c2[nH]cnc2n(C)c1=O"
  Cmax / ng/mL: 35000

---

measurement-notes: Theophylline (aminophylline) intravenous infusion in rabbits: blood concentration, pharmacokinetics, toxicity (Example 1)
Type: in vivo, female New Zealand White rabbits
experimental-context: rabbit, in vivo, iv, 40 mg/kg, average blood concentration of theophylline immediately after stopping the infusion, Table II rabbits
measurement-kind: concentration at 0.25 h

- chemical-structure: "Cn1c(=O)c2[nH]cnc2n(C)c1=O"
  reported-measurement: "~100 µg/mL"

---

measurement-notes: Dyphylline 20 min intravenous infusion in two healthy male subjects: pharmacokinetics, blood pressure, pulse (Example 2)
Assay type: in vivo, human
experimental-context: human, in vivo, iv, 1000 mg, two subjects; read-out: volume of the central compartment, average
measurement-kind: Vd

- compound: "Cn1c(=O)c2c(ncn2CC(O)CO)n(C)c1=O (stereo not shown) [dyphylline, dihydroxypropyl theophylline]"
  reported-measurement: "~0.41 L/kg"

---

measurement-notes: Literature: pharmacokinetics of dyphylline and related derivatives in humans
experimental-context: human, in vivo, po, analysis of Gisclon oral data, total bioavailability; read-out: Vd total

- compound: "Cn1c(=O)c2c(ncn2CC(O)CO)n(C)c1=O (stereo not shown) [dyphylline, dihydroxypropyl theophylline]"
  Vd/F: "~0.87 L/kg"

---

measurement-notes: Dyphylline intravenous infusion in rabbits: blood concentration, pharmacokinetics, toxicity (Example 1)
Format: in vivo, female New Zealand White rabbits
experimental-context: rabbit, blood, iv, 250 mg, 250.0 mg/rabbit over 15 minutes, alone; rabbits 1-3, mean

- compound: "Cn1c(=O)c2c(ncn2CC(O)CO)n(C)c1=O (stereo not shown) [dyphylline, dihydroxypropyl theophylline]"
  reading-unit: "min"
  half-life: 35.6

---

measurement-notes: Literature: pharmacokinetics of dyphylline and related derivatives in humans
experimental-context: human, in vivo, po, analysis of Gisclon oral data, 84 percent bioavailability; read-out: Vd
measurement-kind: Vd/F

- compound: "Cn1c(=O)c2c(ncn2CC(O)CO)n(C)c1=O (stereo not shown) [dyphylline, dihydroxypropyl theophylline]"
  reported-measurement: "~0.73 L/kg"

---

measurement-notes: Dyphylline 20 min intravenous infusion in two healthy male subjects: pharmacokinetics, blood pressure, pulse (Example 2)
Format: in vivo, human
experimental-context: human, in vivo, iv, 1000 mg, Subject 1; 1000 mg over 20 min; read-out: Ke1 (converted)

- compound: "Cn1c(=O)c2c(ncn2CC(O)CO)n(C)c1=O (stereo not shown) [dyphylline, dihydroxypropyl theophylline]"
  k el (s⁻¹): 0.000172

---

measurement-notes: Literature: pharmacokinetics of dyphylline and related derivatives in humans
experimental-context: human, in vivo, po, 10 mg/kg, 10 mg/kg tablet; from Simons et al.; read-out: Total Vd

- compound: "Cn1c(=O)c2c(ncn2CC(O)CO)n(C)c1=O (stereo not shown) [dyphylline, dihydroxypropyl theophylline]"
  reading-unit: "L/kg"
  Vd/F: 0.72

---

measurement-notes: Dyphylline 20 min intravenous infusion in two healthy male subjects: pharmacokinetics, blood pressure, pulse (Example 2)
Assay type: in vivo, human
experimental-context: human, in vivo, iv, 1000 mg, Subject 2; read-out: V1

- compound: "Cn1c(=O)c2c(ncn2CC(O)CO)n(C)c1=O (stereo not shown) [dyphylline, dihydroxypropyl theophylline]"
  reading-unit: "L"
  Vd: 25.1
